Hi there, I'd appreciate the recorded pIC50 for every entry that follows.
biological target: T1, HLA-DRB1*0101 (human); experiment: competition with 125I-labelled standard peptide, purified HLA-DR, gel filtration; details: remark: other sources report otherwise
T1 chain 1: not shown
T1 chain 2: not shown
Give bare numbers, as −log10 of the molar value.

BINDER	REPORTED_METRIC	MEASUREMENT
VWELMTFGAKPYDGI [Her2/neu.912]	pIC50	7.24
SRLLGICLTSTVQLV [Her2/neu.783]	pIC50	7.85

Challenge: Name the reported pIC50 value associated with the binder IKWMALESILRRRFT [Her2/neu.886]
Response given: 7.77
